B1: Pistol ribozyme (parent)
chain: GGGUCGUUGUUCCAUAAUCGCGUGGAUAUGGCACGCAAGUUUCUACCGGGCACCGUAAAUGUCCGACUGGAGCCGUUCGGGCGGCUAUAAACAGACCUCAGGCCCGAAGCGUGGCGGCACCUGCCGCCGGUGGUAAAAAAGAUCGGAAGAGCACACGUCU

- Variants of: B1
- method: aptazyme ON/OFF ratio, guanine; higher = stronger switching; co-transcriptional cleavage with and without guanine
recorded metric: aptazyme ON/OFF ratio
Answers are plain numbers.

alteration	result number
U7C U8A U10A C13A	1.07
U7A U8C G9A U10G C12G	1.15

Would you be so kind as to report aptazyme ON/OFF ratio for each listed record?
1. U7A U10G C13U
2. U7A U8C G9U U10A U11A C12A C13U
3. U7A G9U U10A U11C C12A C13A
4. U7A U8C G9C U10A U11G C13U
5. U8C G9A U10A U11G C12U C13U
6. U7A U8G G9C U10G U11C C12A
7. U8A U10G U11C C13U
8. U7G U8A G9C U10C U11A C12A C13U

Out:
1: 1.27; 2: 1.22; 3: 1.22; 4: 1.09; 5: 1.23; 6: 1.47; 7: 1.04; 8: 1.03

Provide aptazyme ON/OFF ratio values for the following items, in order.
1. U7A U8A U10C U11A C12A
2. U7G G9A U10G U11C C12G C13U
3. U8A G9A U10A U11C C12G
4. U7G G9A U10A U11A C12G C13A
5. G9A U10A U11G C12U C13U
6. U7C G9U U10G U11G C12G C13G
7. U7C U8G G9C U10G U11C C12U C13A
8. U7C G9U C12A C13U

Out:
1: 1.24; 2: 1.1; 3: 1.13; 4: 1.1; 5: 1.22; 6: 1.12; 7: 1.26; 8: 1.19

Could you report aptazyme ON/OFF ratio for every entry in the following list?
1. U7A U8G G9C C12G
2. U7A U8G G9C U10G U11C C12U C13A
3. U7C U8G G9C U10C U11G C12A
4. U8G G9U U10G U11C C12A C13U
5. U8G G9A U10A U11C C13G
6. U7C U8A G9C U10A U11G C12A C13U

Out:
1: 1.29; 2: 1.31; 3: 1.03; 4: 1.03; 5: 1.04; 6: 1.14
